- tgt: adenosine A3 receptor (Homo sapiens (Human))
- Sequence (P0DMS8 whole entry): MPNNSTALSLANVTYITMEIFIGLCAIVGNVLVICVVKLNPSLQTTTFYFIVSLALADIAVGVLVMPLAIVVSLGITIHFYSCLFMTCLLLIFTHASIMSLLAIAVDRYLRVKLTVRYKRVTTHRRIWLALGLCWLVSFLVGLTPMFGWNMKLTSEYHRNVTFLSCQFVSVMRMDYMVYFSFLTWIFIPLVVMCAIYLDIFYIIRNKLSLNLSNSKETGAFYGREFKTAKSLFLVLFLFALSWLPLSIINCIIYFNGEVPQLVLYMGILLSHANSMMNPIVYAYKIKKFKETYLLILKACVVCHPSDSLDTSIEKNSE
- experimentSummary: Adenosine receptor activity assay (Table 1), A3 cAMP
- Format: biochemical
pIC50: −log10 of the molar value.
property: pIC50

Reference set, count: 5
chemicalStructure	pIC50
C[C@H](Nc1nc(C(=O)N2CC(NC(=O)C3(C(F)(F)F)CC3)C2)c2sccc2n1)c1cncc(F)c1	6.30 to 7.00
C[C@H](Nc1nc(C(=O)N2CC(NC(=O)c3ccc(F)c(F)c3)C2)c2sccc2n1)c1cncc(F)c1	< 6.30
C[C@H](Nc1nc(C(=O)N2CC(NC(=O)c3ccccc3)C2)c2sccc2n1)c1cncc(F)c1	6.30 to 7.00
Cc1csc2c(C(=O)N3CC(NC(=O)c4cccc(Cl)c4)C3)nc(N[C@@H](C)c3cncc(F)c3)nc12	< 6.30
C[C@H](Nc1nc(C(=O)N2CC(NC(=O)C3COC3)C2)c2sccc2n1)c1cncc(F)c1	< 6.30

Item under review: `C[C@H](Nc1nc(C(=O)N2CC(NC(=O)C3CCCCC3)C2)c2sccc2n1)c1cncc(F)c1` . Reported pIC50?
7.30 to 8.00

Suppose we examine the compound `C[C@H](Nc1nc(C(=O)N2CC(C)(NC(=O)C3CC3)C2)c2sccc2n1)c1cncc(F)c1` ; what pIC50 value has been reported?
> 8.00

====

- tgt: adenosine A2B receptor (Homo sapiens (Human), UniProt P29275)
- Sequence (P29275 whole entry): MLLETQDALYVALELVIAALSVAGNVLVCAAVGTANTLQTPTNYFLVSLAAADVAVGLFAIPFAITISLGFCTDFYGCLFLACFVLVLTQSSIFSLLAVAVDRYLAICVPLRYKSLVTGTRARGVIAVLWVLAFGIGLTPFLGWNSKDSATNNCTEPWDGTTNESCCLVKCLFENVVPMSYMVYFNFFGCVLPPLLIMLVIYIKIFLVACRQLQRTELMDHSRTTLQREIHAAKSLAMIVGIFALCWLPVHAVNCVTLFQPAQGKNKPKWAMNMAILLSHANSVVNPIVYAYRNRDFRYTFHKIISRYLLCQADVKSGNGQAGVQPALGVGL
- experimentSummary: Adenosine receptor activity assay (Table 1), A2B activity
- Format: biochemical
- runConditions: A2A activity to A2B activity (A2A/A2B)
property: Ratio

molecule	Ratio
C[C@H](Nc1nc(C(=O)N2CC(O)C2)c2sc(N)cc2n1)c1ccccn1 [Example Z205]	27.10
CO[C@@H]1CCN(C(=O)c2nc(N[C@@H](C)c3cncc(F)c3)nc3ccsc23)C1 [Example Z251]	19.74
O=C(NCc1cccc(F)c1)c1nc(NCc2cccc(F)c2)nc2ccsc12 [Example Z74]	1.74
N#Cc1cncc(CNc2nc(C(=O)N3CCCC3)c3sccc3n2)c1 [Example Z141]	35.53
Cc1cc2nc(N[C@@H](C)c3cncc(F)c3)nc(C(=O)N3CC[C@H](CO)C3)c2s1 [Example Z309]	37.14
C[C@H](Nc1nc(C(=O)N2CCC[C@@H]2C)c2sccc2n1)c1cccnc1 [Example Z36]	1.55
C[C@H](Nc1nc(C(=O)N2CC[C@@H](NC(=O)OC(C)(C)C)C2)c2sccc2n1)c1cccnc1 [Example Z313]	0.29
Cc1cc2nc(N[C@@H](C)c3cncc(F)c3)nc(C(=O)NCCc3ccc(O)cc3)c2s1 [Example Z373]	75.08

1. CC(Nc1nc(C(=O)N2CC[C@@H](F)C2)c2sccc2n1)c1cccnc1 (some centres unmarked) [Example Z48]
2. C[C@H](Nc1nc(C(=O)N2CC[C@@H](CO)C2)c2sccc2n1)c1cccnc1 [Example Z260]
3. N[C@H]1CCN(C(=O)c2nc(NCc3cncc(F)c3)nc3ccsc23)C1 [Example Z360]
4. C[C@H](Nc1nc(C(=O)N2CCOCC2)c2sccc2n1)c1cccnc1 [Example Z11]
Number of molecules to sort: 4. Sort criterion: Ratio, ascending. Response field: labels, in requested order.
4, 1, 2, 3
(4: 4.88, 1: 9.26, 2: 16.27, 3: 72.24)

P. O=C(c1nc(NCc2cccc(F)n2)nc2ccsc12)N1CCCC1 [Example Z71]
Q. C[C@H](Nc1nc(C(=O)NC2CCC2)c2sccc2n1)c1ccccn1 [Example Z147]
R. CNc1cc2nc(N[C@@H](C)c3cncc(F)c3)nc(C(=O)N3CC[C@H](O)C3)c2s1 [Example Z197]
Hey, quick one: sort these by Ratio, largest value first please. Put the labels in the requested order and write them down.
R, P, Q

====

- tgt: adenosine A2B receptor (Homo sapiens (Human), UniProt P29275)
- experimentSummary: Adenosine receptor activity assay (Table 1), A2B activity
- Type: biochemical
- runConditions: read-out: Ave A2B cAMP IC50
pIC50: −log10 of the molar value.
property: pIC50

Consider the worked cases shown below.
compound	result
O=C(c1nc(NCc2ccc(C(F)(F)F)nc2)nc2ccsc12)N1CC[C@H](O)C1 [Example Z75]	< 6.30
COc1cncc(CNc2nc(C(=O)N3CC(C)C3)c3sccc3n2)c1 [Example Z117]	7.00 to 7.30
O=C(NCCO)c1nc(NCc2cncc(F)c2)nc2ccsc12 [Example Z123]	7.30 to 8.00
C[C@@H](O)CNC(=O)c1nc(NCc2cncc(C(F)(F)F)c2)nc2ccsc12 [Example Z266]	6.30 to 7.00
Cc1cc2nc(N[C@@H](C)c3cncc(F)c3)nc(C(=O)N3CC(NC(=O)c4ccoc4)C3)c2s1 [Example Z546]	> 8.00
C[C@H](Nc1nc(C(=O)NCCN)c2sccc2n1)c1cncc(F)c1 [Example Z536]	< 6.30

Field request: pIC50 | item: C[C@H](Nc1nc(C(=O)NCc2ccc(OCC3CC3)nc2)c2sccc2n1)c1ccccn1 [Example Z107]
7.00 to 7.30

Need pIC50 of CO[C@@H]1CCN(C(=O)c2nc(N[C@@H](C)c3cncc(F)c3)nc3ccsc23)C1 [Example Z251] , thanks.
> 8.00

====

- tgt: adenosine A2B receptor (Homo sapiens (Human))
- experimentSummary: Adenosine receptor activity assay (Table 1), A2B activity
- Assay type: biochemical
- runConditions: cAMP; read-out: Ave A2B cAMP IC50
property: IC50

Solved entries (count: 2):
compound	IC50
C[C@H](Nc1nc(C(=O)N2CC(NC(=O)C3(C(F)(F)F)CCC3)C2)c2sccc2n1)c1cncc(F)c1	10 to 50 nM
C[C@H](Nc1nc(C(=O)N2CC(NC(=O)C3(C)CCC3)C2)c2sccc2n1)c1cncc(Cl)c1	10 to 50 nM

Notebook: pull reported IC50 for adenosine A2B receptor (Homo sapiens (Human)), entry C[C@H](Nc1nc(C(=O)N2CC(NC(=O)C3(C)CCOC3)C2)c2sccc2n1)c1cncc(F)c1 (stereo partly shown)
10 to 50 nM

// fetch adenosine A2B receptor (Homo sapiens (Human)) IC50 for `Cc1cc2nc(N[C@@H](C)c3cncc(F)c3)nc(C(=O)N3CC(NC(=O)[C@H]4CCOC4)C3)c2s1`
10 to 50 nM

What value of IC50 on adenosine A2B receptor (Homo sapiens (Human)) does `Cc1cc2nc(N[C@@H](C)c3cncc(F)c3)nc(C(=O)N3CC(NC(=O)c4ccc(C(F)(F)F)o4)C3)c2s1` have?
< 10 nM

For the record `C[C@H](Nc1nc(C(=O)N2CC(NC(=O)c3cccc(Cl)c3)C2)c2sccc2n1)c1cncc(F)c1` , what value of IC50 is listed for adenosine A2B receptor (Homo sapiens (Human))?
< 10 nM

Report IC50 for `C[C@H](Nc1nc(C(=O)N2CC(NC(=O)C3CCC(F)(F)CC3)C2)c2sccc2n1)c1cncc(F)c1` tested on adenosine A2B receptor (Homo sapiens (Human)).
10 to 50 nM

====

Attribute: pIC50
- tgt: adenosine A3 receptor (Homo sapiens (Human))
- experimentSummary: Adenosine receptor activity assay (Table 1), A3 cAMP
- Type: biochemical
pIC50: −log10 of the molar value.

Recorded pIC50, per entry:
compound	pIC50
Cc1cc2nc(N[C@@H](C)c3cncc(F)c3)nc(C(=O)N3CC(C(=O)OC(C)(C)C)C3)c2s1 [Example Z573]	< 6.30
COc1cccc(CCNC(=O)c2nc(N[C@@H](C)c3cncc(F)c3)nc3ccsc23)n1 [Example Z411]	< 6.30
COC[C@@H](Nc1nc(C(=O)NCCc2ccc(O)cc2)c2sccc2n1)c1cccnc1 [Example Z403]	< 6.30
C[C@H](Nc1nc(C(=O)N2CC(CNS(C)(=O)=O)C2)c2sccc2n1)c1cncc(F)c1 [Example Z531]	< 6.30

Need pIC50 of Cc1csc2c(C(=O)N3CC[C@H](O)C3)nc(N[C@@H](C)c3cncc(F)c3)nc12 [Example Z416] , thanks.
< 6.30

What does the data say about its pIC50? Entry: Cc1csc2c(C(=O)N3CCCC3)nc(N[C@@H](C)c3cncc(F)c3)nc12 [Example Z414]
7.00 to 7.30

Data request, read-out pIC50, for COC[C@@H]1CCN(C(=O)c2nc(N[C@@H](C)c3ccccn3)nc3cc(C)sc23)C1 [Example Z467]
7.00 to 7.30

What value of measured pIC50 is listed for Cc1cc2nc(N[C@@H](C)c3ccccn3)nc(C(=O)N3CC(CN)C3)c2s1 [Example Z479] ?
< 6.30

Quick one: pIC50 of CC(=O)N(C)C1CN(C(=O)c2nc(N[C@@H](C)c3cncc(F)c3)nc3cc(C)sc23)C1 [Example Z509] ?
< 6.30

Given the entry CN[C@H]1CCN(C(=O)c2nc(N[C@@H](C)c3cncc(F)c3)nc3cc(C)sc23)C1 [Example Z561] , report its measured pIC50.
< 6.30
